Here, each record is paired with measured pKd data.
B1: NELF-E aptamer (parent)
chain: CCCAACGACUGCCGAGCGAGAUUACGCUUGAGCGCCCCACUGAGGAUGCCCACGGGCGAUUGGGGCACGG

Variants of: B1
Test: HiTS-RAP
Conditions: with NELF-E (Drosophila)
The quantity pKd is defined as the negative base-10 logarithm of the molar concentration.

A5G A46U    7.04
U10G U23A    8.29
A4G G30A    8.31

**Q:** // pKd lookup, key: G7U C37U
**A:** 7.98

**Q:** Look at this variant and give its reported pKd. U41G G45A
**A:** 7.27

**Q:** Entry C17G U41G has what pKd?
**A:** 8.31
